Sourced from patent US5071839A

Examples of compounds with documented % Cytotoxicity (NK cells) follow.
# Test system: YAC-1 or EAC cells
# test: Natural killer cell cytotoxicity, 51Cr release from YAC-1 or EAC cells (Example 5, Table 1)
# Type: cell-based, mice
# experimental.parameters: C: control, only antiviral drug (80 μg/ml); E:T 100:1
quantity.kind: % Cytotoxicity (NK cells)

>>> observed_measurement("Nc1ncn([C@@H]2O[C@H](CO)[C@@H](O)[C@H]2O)c(=O)n1")
"11.2%"
>>> observed_measurement("Nc1ncnc2c1ncn2[C@H]1CC[C@@H](CO)O1 [DDA, 2',3'-Dideoxyadenoside]")
"18.0%"
>>> observed_measurement("O=P1(N(CCCl)CCCl)NCCCO1 (stereo not shown) [CP, Cyclophosphamide]")
"20.7%"
>>> observed_measurement("NC(=O)c1ncn([C@@H]2O[C@H](CO)[C@@H](O)[C@H]2O)n1 [Rib, Ribofuranosyl-Trazole-Carboxamide]")
"22.3%"

* * *

# Tested on: lymphocytes
# test: Lymphoblastoid transformation test, 3H-TdR (Example 7, Table 3)
# Assay type: cell-based, mice
# experimental.parameters: C: control, only antiviral drug (80 μg/ml)
Examples of compounds with documented CPM (lymphoblastoid transformation) follow.
quantity.kind: CPM (lymphoblastoid transformation)

>>> observed_measurement("Nc1ncn([C@@H]2O[C@H](CO)[C@@H](O)[C@H]2O)c(=O)n1")
"441 CPM"
>>> observed_measurement("Nc1ccn([C@@H]2O[C@H](CO)[C@@H](O)[C@@H]2O)c(=O)n1")
"654 CPM"
>>> observed_measurement("NC(=O)c1ncn([C@@H]2O[C@H](CO)[C@@H](O)[C@H]2O)n1 [Rib, Ribofuranosyl-Trazole-Carboxamide]")
"763 CPM"
>>> observed_measurement("Nc1ncnc2c1ncn2[C@H]1CC[C@@H](CO)O1 [DDA, 2',3'-Dideoxyadenoside]")
"502 CPM"
>>> observed_measurement("O=P1(N(CCCl)CCCl)NCCCO1 (centres unmarked) [CP, Cyclophosphamide]")
"620 CPM"

* * *

# Tested on: peritoneal macrophage
# test: Phagocytosis of peritoneal macrophage of mice, 51Cr chick red blood cells (Example 10, Table 6)
# Assay type: cell-based
# experimental.parameters: C: control, only antiviral drug (80 μg/ml)
Rule: CPM (phagocytosis of peritoneal macrophage) below 500 CPM gives Met. Equal to or above 500 CPM gives Not met.

>>> assigned_label("NC(=O)c1ncn([C@@H]2O[C@H](CO)[C@@H](O)[C@H]2O)n1 [Rib, Ribofuranosyl-Trazole-Carboxamide]")
"Not met"
>>> assigned_label("O=P1(N(CCCl)CCCl)NCCCO1 (centres unmarked) [CP, Cyclophosphamide]")
"Met"
>>> assigned_label("Nc1ncn([C@@H]2O[C@H](CO)[C@@H](O)[C@H]2O)c(=O)n1 [AZC]")
"Met"
